measurement.target: Chymase (Homo sapiens)
Sequence (P23946 whole entry): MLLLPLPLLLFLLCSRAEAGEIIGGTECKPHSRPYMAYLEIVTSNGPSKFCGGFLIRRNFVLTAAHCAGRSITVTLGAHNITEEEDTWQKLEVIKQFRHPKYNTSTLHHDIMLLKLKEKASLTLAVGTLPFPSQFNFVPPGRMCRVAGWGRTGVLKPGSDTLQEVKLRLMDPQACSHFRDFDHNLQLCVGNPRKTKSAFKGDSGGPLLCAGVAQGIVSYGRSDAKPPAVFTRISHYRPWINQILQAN
observation.type: IC50

Consider the reported IC50 for these compounds:
O=C1CN(c2ccccc2)C(=O)N1C(=O)c1ccc(Cl)cc1: > 100 µM
O=C1CN(S(=O)(=O)c2ccc(Cl)cc2)C(=O)N1c1ccc(Cl)cc1: > 100 µM

In the following, a different compound is considered.
// query Consider the compound shown here: CC(=O)Nc1ccc(N2CC(=O)N(S(=O)(=O)c3ccc(Cl)cc3)C2=O)cc1 What is its recorded IC50?
// result > 100 µM
